Value source: paper PMC5540273

# Test system: NDR1;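 note: KINOMEscan kinase panel screen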
# Construct: gene STK38
# details: concentration: 1 μM, replicates: in singlicate; n = 1
So basically, if %Inh comes in under 8% it's t, and if it's 8% or more it's f.

A selection of reference data follows.
INSERT INTO assay_data (molecule, class_label) VALUES
  ('COC(=O)c1c(-c2ccccc2)c2cc(Br)ccc2c(=O)n1Cc1ccc(NC(=O)CCC(=O)O)cc1', 't'),
  ('Cc1ccccc1COc1cc(-n2cnc3cc(Cl)ccc32)sc1C(N)=O [GW813349]', 't'),
  ('COc1cc2ncn(-c3cc(OCc4ccncc4)c(C(N)=O)s3)c2cc1OC [GSK336313]', 't'),
  ('Cc1cc(Nc2nc(-c3cccc(C)n3)nc3ccccc23)ccn1 [GW872411]', 'f'),
  ('Cc1nc(N(C)[C@H]2CN(C(=O)CC#N)CC[C@H]2C)c2cc[nH]c2n1', 't');

Task item: Hi there! Is %Inh for "CCC(=O)c1c(-c2ccccc2)c2cc(Cl)ccc2c(=O)n1Cc1cc(C(=O)NC2CC2)n(C)n1" below 8%, do you know?
Reply: t

Task item: Hi there! Is %Inh for "CCc1nc(-c2cccc(C)c2)c(-c2ccncc2)s1" below 8%, do you know?
Reply: f
